Provide the reported phosphorylation enrichment of each item.
target: Fyn (UniProt P06241); assay: phosphorylation enrichment, bacterial display (enrichment ratio); higher = better substrate or ligand; peptides without Tyr show the background;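 further: 11-residue human phosphosite peptides and single-mutation variants displayed on the E. coli surface, counted by deep sequencing, each peptide's frequency after selection divided by its frequency in the unselected input library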;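 further: frequency after pTyr selection over input frequency; kinase dosed for 20-30% of maximal phosphorylation in three min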
Sequence (P06241 whole entry, looked up): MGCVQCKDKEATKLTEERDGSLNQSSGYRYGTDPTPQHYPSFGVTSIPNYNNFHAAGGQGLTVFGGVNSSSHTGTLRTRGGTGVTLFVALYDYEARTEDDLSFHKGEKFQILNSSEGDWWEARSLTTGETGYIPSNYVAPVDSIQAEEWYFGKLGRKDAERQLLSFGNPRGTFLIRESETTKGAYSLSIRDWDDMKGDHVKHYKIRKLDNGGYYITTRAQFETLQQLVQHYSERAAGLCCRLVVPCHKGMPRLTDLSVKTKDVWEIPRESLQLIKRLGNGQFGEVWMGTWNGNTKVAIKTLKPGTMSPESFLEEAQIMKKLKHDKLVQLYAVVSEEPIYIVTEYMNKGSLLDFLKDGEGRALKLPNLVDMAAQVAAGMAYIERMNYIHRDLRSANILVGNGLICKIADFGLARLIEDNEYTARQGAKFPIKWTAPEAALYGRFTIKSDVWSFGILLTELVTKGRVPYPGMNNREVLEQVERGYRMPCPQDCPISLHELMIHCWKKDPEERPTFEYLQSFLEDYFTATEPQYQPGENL
One number for each entry.

Examples with their reported phosphorylation enrichment follow.
| Residue Codes | phosphorylation enrichment |
| --- | --- |
| QTLEAYIRWNK [SPAST_Y604] | 0.452 |
| DGMADYSDPSY [CDC5L_Y459] | 0.571 |
| TLLSAYQIPRT [GAB2_Y324_P320L] | 0.387 |
| RYVTRSIYNRE [HLA-DQB1_Y62_Y62S] | 0.553 |

Need phosphorylation enrichment for each of these sequences.
1. FSLIHYAGIVV [MYH7_Y582_D587V]
2. VLVSQYEKLNA [AMZ2_Y26]
3. GDYYCYLAEVA [YWHAG_Y133_R132C]
4. AKKVFYVNETR [SHH_Y253_I255N]
5. AGKEEYSAMRD [HRAS_Y64_Q61K]

Reply |
1. 0.532
2. 0.438
3. 4.95
4. 0.307
5. 0.432

* * *

Field: phosphorylation enrichment. Provide a value for each of the sequences that follow.
molecular target: Jak2 (UniProt O60674); assay: phosphorylation enrichment, bacterial display (enrichment ratio); higher = better substrate or ligand; peptides without Tyr show the background
Sequence (O60674 whole entry, looked up): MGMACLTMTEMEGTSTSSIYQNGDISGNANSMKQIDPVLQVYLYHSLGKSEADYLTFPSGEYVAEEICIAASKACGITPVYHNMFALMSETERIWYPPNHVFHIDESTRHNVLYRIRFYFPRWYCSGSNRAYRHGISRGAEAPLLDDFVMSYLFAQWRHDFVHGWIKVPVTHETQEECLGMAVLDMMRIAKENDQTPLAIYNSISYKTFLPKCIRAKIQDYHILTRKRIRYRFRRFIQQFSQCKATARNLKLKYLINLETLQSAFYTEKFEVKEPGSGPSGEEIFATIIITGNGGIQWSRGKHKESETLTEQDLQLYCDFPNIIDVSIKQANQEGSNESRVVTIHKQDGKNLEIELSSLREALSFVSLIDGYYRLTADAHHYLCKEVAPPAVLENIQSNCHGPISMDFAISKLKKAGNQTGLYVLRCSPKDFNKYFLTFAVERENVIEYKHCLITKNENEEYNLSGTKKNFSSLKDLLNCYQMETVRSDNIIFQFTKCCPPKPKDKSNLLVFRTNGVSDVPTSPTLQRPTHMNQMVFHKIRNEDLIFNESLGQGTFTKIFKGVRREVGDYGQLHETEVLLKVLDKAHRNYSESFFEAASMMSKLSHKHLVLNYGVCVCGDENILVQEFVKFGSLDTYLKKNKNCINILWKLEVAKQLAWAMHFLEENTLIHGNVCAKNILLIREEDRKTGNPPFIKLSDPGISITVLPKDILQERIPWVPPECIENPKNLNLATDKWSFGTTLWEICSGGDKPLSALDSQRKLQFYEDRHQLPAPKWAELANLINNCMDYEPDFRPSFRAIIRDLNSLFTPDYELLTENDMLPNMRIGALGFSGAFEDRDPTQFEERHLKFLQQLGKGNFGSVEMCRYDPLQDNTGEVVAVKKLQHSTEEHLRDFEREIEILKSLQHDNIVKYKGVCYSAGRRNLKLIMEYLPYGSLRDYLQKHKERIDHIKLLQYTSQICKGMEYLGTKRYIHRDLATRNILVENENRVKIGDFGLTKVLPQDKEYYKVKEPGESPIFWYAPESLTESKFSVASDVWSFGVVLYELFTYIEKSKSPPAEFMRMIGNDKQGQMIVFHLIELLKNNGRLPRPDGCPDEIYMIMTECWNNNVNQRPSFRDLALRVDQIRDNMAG
Answers are plain numbers.

In the examples that follow, each entry is paired with its recorded phosphorylation enrichment.
| Residue Codes | Experimental Result |
| --- | --- |
| LGSNTYPFLLM [SAG_Y120_T125M] | 1.31 |
| RNDRVYQPLRD [CD3D_Y149_Q147R] | 0.509 |
| SGSFRYGSSFE [SELE_Y390_C394F] | 0.629 |

With those in mind, consider the next sequence.
Ask | Give the measured phosphorylation enrichment for FARNSYVAGQF [G6PD_Y107_YF]
Reply | 0.522

* * *

tested on: Fer (mouse); test: phosphorylation enrichment, bacterial display (enrichment ratio); higher = better substrate or ligand; peptides without Tyr show the background
Readout Kind: phosphorylation enrichment

| Residue Codes | phosphorylation enrichment |
| --- | --- |
| ETAENYLGFTA [HSPA9_Y181_H184Y_YF] | 0.486 |

Hey, can you go through the list below and give me phosphorylation enrichment for every item?
1. DLDTDYGSGFP [RNASEH2A_Y206_YF]
2. PYYTSYPPSPD [GDAP2_Y491]
3. HELYVYKCDEN [DOCK3_Y548]
4. IKRIDYEFVEM [ADA_Y84_A83D]

Reply |
[0.465, 0.676, 0.719, 1.82]

Quick request: phosphorylation enrichment for each listed item, please.
1. EVKRLYGSVCD [TC2N_Y154]
2. ILDEAYVMASV [EGFR_Y764]
3. LEGEEYRMSGE [KRT3_Y511]
4. RYVSRYIYNRE [HLA-DQB1_Y62_T60S]
5. EVVGKYSVHNA [MLH1_Y183_R182K]
6. QDTSRYTVCNL [BIRC3_Y245_S248C]
7. WEPFGYAVTRC [PTPRT_Y412]

Reply |
1: 0.543; 2: 0.538; 3: 0.937; 4: 0.844; 5: 0.426; 6: 0.557; 7: 0.458

* * *

biological target: MERTK (UniProt Q12866); test: phosphorylation enrichment, bacterial display (enrichment ratio); higher = better substrate or ligand; peptides without Tyr show the background
Sequence (Q12866 whole entry, looked up): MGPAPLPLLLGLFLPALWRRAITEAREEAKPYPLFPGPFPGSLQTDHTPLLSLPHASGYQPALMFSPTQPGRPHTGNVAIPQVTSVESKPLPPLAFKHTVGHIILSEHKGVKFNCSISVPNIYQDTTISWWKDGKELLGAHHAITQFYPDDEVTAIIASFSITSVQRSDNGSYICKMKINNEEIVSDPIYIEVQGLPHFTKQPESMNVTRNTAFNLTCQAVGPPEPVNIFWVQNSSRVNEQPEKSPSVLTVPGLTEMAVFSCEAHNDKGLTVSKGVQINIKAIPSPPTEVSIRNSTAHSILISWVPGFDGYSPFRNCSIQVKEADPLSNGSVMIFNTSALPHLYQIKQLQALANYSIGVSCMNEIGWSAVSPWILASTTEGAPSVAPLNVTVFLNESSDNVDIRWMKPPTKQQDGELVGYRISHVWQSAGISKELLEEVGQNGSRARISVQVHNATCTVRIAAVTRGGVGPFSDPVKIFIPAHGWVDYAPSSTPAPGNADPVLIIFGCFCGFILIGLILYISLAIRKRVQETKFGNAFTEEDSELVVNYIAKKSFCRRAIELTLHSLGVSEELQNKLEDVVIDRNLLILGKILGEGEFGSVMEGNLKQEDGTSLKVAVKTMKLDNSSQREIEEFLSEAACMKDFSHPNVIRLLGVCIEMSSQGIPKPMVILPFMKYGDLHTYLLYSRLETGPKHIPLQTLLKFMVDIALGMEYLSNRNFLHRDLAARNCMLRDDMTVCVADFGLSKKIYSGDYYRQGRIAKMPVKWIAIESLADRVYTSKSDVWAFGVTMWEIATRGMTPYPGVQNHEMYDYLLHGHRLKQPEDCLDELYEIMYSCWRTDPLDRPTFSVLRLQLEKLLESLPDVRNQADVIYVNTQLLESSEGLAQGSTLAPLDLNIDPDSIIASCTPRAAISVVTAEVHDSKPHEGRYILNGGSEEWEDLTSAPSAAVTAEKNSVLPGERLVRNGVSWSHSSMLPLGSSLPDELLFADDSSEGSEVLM
Field: phosphorylation enrichment. Provide a value for each of the sequences that follow.
Numbers only.

See these solved cases before continuing.
| Residue Codes | Assay Target | phosphorylation enrichment |
| --- | --- | --- |
| DDLEVYLKHPL [SACS_Y3477_L3481P] | MERTK (UniProt Q12866) | 0.562 |
| ATDLAYYLVRK [ASL_Y375] | MERTK (UniProt Q12866) | 1.19 |
| VDLSKCITTIA [FAS_Y232_Y232C] | MERTK (UniProt Q12866) | 0.364 |
| IPVNGYQPVPA [ROR2_Y824_V819I] | MERTK (UniProt Q12866) | 0.899 |
| DVSKEYGHLLP [HRC_Y99] | MERTK (UniProt Q12866) | 0.59 |
| SGPRRYTMAAL [TTR_Y125_I127M] | MERTK (UniProt Q12866) | 0.44 |
| GMTLSYLFREL [NDUFS8_Y74_P79L] | MERTK (UniProt Q12866) | 0.447 |
| PIFEGYALPHA [ACTA1_Y171_YF] | MERTK (UniProt Q12866) | 0.807 |

The following sequences each have a reported value; give each one's phosphorylation enrichment.
1. VYAANYYKLLG [ROR2_Y645_D644N]
2. EVVGKYSVHNA [MLH1_Y183_R182K]
3. GDYYCYLAEVA [YWHAG_Y133_R132C]
4. CTTSHYNYMCN [TP53_Y234_I232S]
5. QFFQSYFNNNF [ZNF236_Y644]
6. IDDNEYAFLKA [HNF4A_Y286_YF]

Reply |
1. 5.56
2. 0.374
3. 7.27
4. 0.549
5. 0.627
6. 0.538

Lab note: each sequence below needs its phosphorylation enrichment filled in.
1. GFQPEYGQPAG [SYP_Y278_D277E_YF]
2. VSKGGYFSVNL [C3orf33_Y164]

Reply |
0.424
0.418

* * *

target: EPHB2 (UniProt P29323); assay: phosphorylation enrichment, bacterial display (enrichment ratio); higher = better substrate or ligand; peptides without Tyr show the background
Sequence (P29323 whole entry, looked up): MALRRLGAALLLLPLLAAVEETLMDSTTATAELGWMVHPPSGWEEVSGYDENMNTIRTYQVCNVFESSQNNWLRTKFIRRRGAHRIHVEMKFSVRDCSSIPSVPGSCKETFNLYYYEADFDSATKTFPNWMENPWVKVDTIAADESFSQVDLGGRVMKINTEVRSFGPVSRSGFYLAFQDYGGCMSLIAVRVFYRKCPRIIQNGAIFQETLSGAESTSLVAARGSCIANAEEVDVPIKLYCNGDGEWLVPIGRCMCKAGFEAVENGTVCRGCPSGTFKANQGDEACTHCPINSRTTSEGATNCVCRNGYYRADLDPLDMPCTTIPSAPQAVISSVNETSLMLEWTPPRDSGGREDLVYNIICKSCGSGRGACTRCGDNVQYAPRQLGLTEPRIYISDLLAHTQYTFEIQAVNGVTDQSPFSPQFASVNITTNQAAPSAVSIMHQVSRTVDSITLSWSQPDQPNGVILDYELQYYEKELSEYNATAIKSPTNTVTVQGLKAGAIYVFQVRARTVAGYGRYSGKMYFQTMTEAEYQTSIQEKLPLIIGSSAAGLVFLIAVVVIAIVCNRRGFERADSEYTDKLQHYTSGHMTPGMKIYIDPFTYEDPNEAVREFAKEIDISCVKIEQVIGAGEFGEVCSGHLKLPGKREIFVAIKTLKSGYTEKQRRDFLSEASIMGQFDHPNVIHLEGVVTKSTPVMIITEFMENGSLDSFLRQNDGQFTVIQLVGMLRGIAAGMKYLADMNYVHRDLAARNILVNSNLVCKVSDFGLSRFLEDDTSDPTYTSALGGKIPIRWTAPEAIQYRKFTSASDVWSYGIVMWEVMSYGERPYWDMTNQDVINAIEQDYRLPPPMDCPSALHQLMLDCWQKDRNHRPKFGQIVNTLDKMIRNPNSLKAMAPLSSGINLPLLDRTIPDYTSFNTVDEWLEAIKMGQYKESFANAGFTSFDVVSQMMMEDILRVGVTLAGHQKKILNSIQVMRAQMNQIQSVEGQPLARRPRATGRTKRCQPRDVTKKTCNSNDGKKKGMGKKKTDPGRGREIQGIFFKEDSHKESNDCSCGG
Would you mind telling me the reported phosphorylation enrichment of each entry?
Numbers only.

Below, 2 sequences whose answers are already recorded.
| Residue Codes | phosphorylation enrichment |
| --- | --- |
| GKTQQYECKWY [BCR_Y751_D752E] | 0.6 |
| TLRETYGEMAD [ALB_Y108] | 0.559 |

// next item, phosphorylation enrichment requested
Ask | Assign phosphorylation enrichment to the following record: EIRTQYEVMAS [GFAP_Y242_A244V]
Reply | 0.476

* * *

system: Fer (mouse); assay: phosphorylation enrichment, bacterial display (enrichment ratio); higher = better substrate or ligand; peptides without Tyr show the background
Readout Kind: phosphorylation enrichment
Answers are plain numbers.

| Residue Codes | phosphorylation enrichment |
| --- | --- |
| QDEHGYISLCF [HSPB1_Y133_R136L] | 1.08 |

Provide each entry's phosphorylation enrichment from the list below.
1. DDLEVYLKHPL [SACS_Y3477_L3481P]
2. KVIDMYLMGCF [GABRB2_Y308_A304V]

Reply |
[0.558, 0.638]

* * *

target: Fyn (UniProt P06241); assay: phosphorylation enrichment, bacterial display (enrichment ratio); higher = better substrate or ligand; peptides without Tyr show the background
# phosphorylation enrichment >= 0.5 gives Condition met, anything below gives Condition not met

Examples with answers:
| Residue Codes | Label Class |
| --- | --- |
| HSHTRYERNIE [F2_Y434_R431H] | Condition not met |
| KLFFHYDPKLC [INSR_Y457_N458D] | Condition not met |
| AFHGEYIPTVF [RAC2_Y32_P29H] | Condition not met |
| IKRIDYEFVEM [ADA_Y84_A83D] | Condition not met |
| QEGPEYWDRET [HLA-A_Y83_Q86R] | Condition met |

Next, consider the following sequence.
Ask | Test whether the sequence FLTQHYDAKPQ [ANG_Y38] records phosphorylation enrichment of 0.5 or higher.
Reply | Condition met

* * *

test system: AncSZ; experiment: phosphorylation enrichment, bacterial display (enrichment ratio); higher = better substrate or ligand; peptides without Tyr show the background
Please provide measured phosphorylation enrichment for the entries that follow.
Numbers only.

Some solved entries appear below for comparison.
| Residue Codes | Assay Target | phosphorylation enrichment |
| --- | --- | --- |
| VVEFGYEFFAK [PPP1CB_Y254_D252Y_YF] | AncSZ | 1.52 |
| HLGNQYVNVMN [SLC3A1_Y461_R456H] | AncSZ | 0.905 |
| PKSLFYLLLKL [TRPC6_Y775] | AncSZ | 2.5 |
| PSTFRYERGSR [INPPL1_Y663_P659S_YF] | AncSZ | 0.51 |
| SVVVPYERPEV [TP53_Y220_P222R] | AncSZ | 0.958 |

For each of the sequences below, state phosphorylation enrichment.
1. NLNGKYNKPRA [ANGPTL3_Y417]
2. VYYDLYGGEKF [PTPN11_Y66_D61V]
3. AEFGLYRAMVR [VSX2_Y222_G223R_YF]
4. EPFEVYRIVPE [IRF8_Y110_K108E_YF]
5. TFYQMYDKGLV [IARS2_Y231]
6. KDHPDYKYQPR [SOX10_Y171]
7. FRAPGYREVVI [TNS2_Y673_YF]

Reply |
[0.51, 2.05, 0.753, 1.05, 1.38, 0.668, 0.52]

Hi there! I need phosphorylation enrichment for each item below, if you can.
1. ASPALYRLDLD [TRIL_Y352]
2. LGSNGCKKLLK [SEPSECS_Y334_Y334C]

Reply |
1. 0.798
2. 0.823

Each of the following entries comes with a recorded value; kindly state phosphorylation enrichment for each.
1. HELYVYKCDEN [DOCK3_Y548]
2. YLQEIHNSNNQ [FGG_Y140_Y140H]
3. KMATAYIRRMS [BCO1_Y264]
4. GMTRNYIIFIE [BCO2_Y294]
5. EPDSLYGCGGG [ATM_Y2019]

Reply |
[1.48, 0.618, 0.68, 0.96, 1.01]
